Hey, just so you know, these numbers are from ChEMBL document CHEMBL4138058.

# Activity listing for each entry below
Assay system: Estrogen receptor (Homo sapiens)
Sequence (whole entry): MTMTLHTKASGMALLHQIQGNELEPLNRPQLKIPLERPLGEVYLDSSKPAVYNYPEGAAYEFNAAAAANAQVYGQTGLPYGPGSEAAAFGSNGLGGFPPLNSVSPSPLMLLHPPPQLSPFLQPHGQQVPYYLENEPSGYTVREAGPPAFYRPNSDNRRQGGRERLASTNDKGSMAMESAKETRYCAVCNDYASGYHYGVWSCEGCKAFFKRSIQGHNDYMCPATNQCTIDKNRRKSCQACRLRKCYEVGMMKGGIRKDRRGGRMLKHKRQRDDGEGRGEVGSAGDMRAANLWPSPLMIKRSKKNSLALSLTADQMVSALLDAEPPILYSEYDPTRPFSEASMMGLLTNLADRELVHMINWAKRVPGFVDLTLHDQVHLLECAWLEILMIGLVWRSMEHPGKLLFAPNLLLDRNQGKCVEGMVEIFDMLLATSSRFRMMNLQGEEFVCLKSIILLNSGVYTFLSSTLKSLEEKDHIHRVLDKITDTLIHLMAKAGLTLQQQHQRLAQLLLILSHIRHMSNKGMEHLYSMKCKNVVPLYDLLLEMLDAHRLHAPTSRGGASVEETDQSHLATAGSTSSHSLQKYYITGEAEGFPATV
Protocol description: Downregulation of ERalpha expression in human MCF7 cells at 1 uM after 6 hrs by Western blot method relative to beta-actin
Type: cell-based
Parameter measured: Activity (%)

1) CCCCCCCCCCCCOc1ccc(C(CCC)(CCC)c2ccc(O)c(C)c2)cc1C: 128
2) CCCCOc1ccc(C(CCC)(CCC)c2ccc(O)c(C)c2)cc1C: 84
3) CCCCCCCCCCCCCCCCNCCOc1ccc(C(CCC)(CCC)c2ccc(O)c(C)c2)cc1C: 92
4) CCCCCCCCNCCOc1ccc(C(CCC)(CCC)c2ccc(O)c(C)c2)cc1C: 111
5) CCCCCCCCCCOc1ccc(C(CCC)(CCC)c2ccc(O)c(C)c2)cc1C: 118
6) CCCCCCCCCCNCCOc1ccc(C(CCC)(CCC)c2ccc(O)c(C)c2)cc1C: 76
7) CCCC(CCC)(c1ccc(O)c(C)c1)c1ccc(O)c(C)c1: 80
8) CCCCCCNCCOc1ccc(C(CCC)(CCC)c2ccc(O)c(C)c2)cc1C: 185
9) CCCC(CCC)(c1ccc(O)c(C)c1)c1ccc(OCCN)c(C)c1: 145
10) CCCC(CCC)(c1ccc(O)c(C)c1)c1ccc(OCCN(C)C)c(C)c1: 109

* * *

Recorded Activity, one value per entry.
Assay system: Estrogen receptor (Homo sapiens)
Protocol description: Downregulation of ERalpha expression in human MCF7 cells at 1 uM after 6 hrs by Western blot method relative to beta-actin
Assay type: cell-based
Parameter measured: Activity (%)

1. CCCCCCCCOc1ccc(C(CCC)(CCC)c2ccc(O)c(C)c2)cc1C: 105
2. CCCCCCOc1ccc(C(CCC)(CCC)c2ccc(O)c(C)c2)cc1C: 89
3. CCCCCCCCCCCCNCCOc1ccc(C(CCC)(CCC)c2ccc(O)c(C)c2)cc1C: 93
4. CCCC(CCC)(c1ccc(O)c(C)c1)c1ccc(OCC)c(C)c1: 95

* * *

Assay system: UniProt:P03372
Sequence (P03372 whole entry): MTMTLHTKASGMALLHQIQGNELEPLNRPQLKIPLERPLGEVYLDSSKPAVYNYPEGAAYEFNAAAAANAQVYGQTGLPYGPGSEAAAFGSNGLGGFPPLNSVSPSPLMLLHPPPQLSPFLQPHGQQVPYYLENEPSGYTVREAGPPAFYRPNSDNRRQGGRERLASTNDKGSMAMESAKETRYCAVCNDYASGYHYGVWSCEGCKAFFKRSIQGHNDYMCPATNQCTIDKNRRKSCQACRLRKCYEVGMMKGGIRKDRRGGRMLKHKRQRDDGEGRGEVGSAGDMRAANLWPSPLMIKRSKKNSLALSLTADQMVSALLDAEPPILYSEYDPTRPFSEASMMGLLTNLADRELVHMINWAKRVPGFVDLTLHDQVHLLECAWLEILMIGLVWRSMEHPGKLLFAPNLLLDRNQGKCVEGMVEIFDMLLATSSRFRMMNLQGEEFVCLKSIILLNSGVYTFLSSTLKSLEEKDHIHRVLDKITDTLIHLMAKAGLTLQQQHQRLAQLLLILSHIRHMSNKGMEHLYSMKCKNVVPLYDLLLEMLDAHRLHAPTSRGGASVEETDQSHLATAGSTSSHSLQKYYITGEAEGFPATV
Protocol description: Displacement of Fluormone ES2 Green from full-length untagged human ERalpha expressed in insect cells after 2 hrs by fluorescence polarization assay
pIC50: −log10 of the molar value.
Parameter measured: pIC50

1. CCCC(CCC)(c1ccc(O)c(C)c1)c1ccc(OCCN)c(C)c1: 7.11
2. CCCC(CCC)(c1ccc(O)c(C)c1)c1ccc(OCC)c(C)c1: 7.40
3. CCCCCCCCOc1ccc(C(CCC)(CCC)c2ccc(O)c(C)c2)cc1C: 6.40
4. CCCCCCCCCCCCCCCCNCCOc1ccc(C(CCC)(CCC)c2ccc(O)c(C)c2)cc1C: 7.70
5. CCCCCCCCNCCOc1ccc(C(CCC)(CCC)c2ccc(O)c(C)c2)cc1C: 8.62
6. CCCCOc1ccc(C(CCC)(CCC)c2ccc(O)c(C)c2)cc1C: 7.06
7. CCCC(CCC)(c1ccc(O)c(C)c1)c1ccc(O)c(C)c1: 8.14
8. CCCCCCOc1ccc(C(CCC)(CCC)c2ccc(O)c(C)c2)cc1C: 6.77
9. CCCC(CCC)(c1ccc(O)c(C)c1)c1ccc(OCCN(C)C)c(C)c1: 6.50
10. CCCCCCNCCOc1ccc(C(CCC)(CCC)c2ccc(O)c(C)c2)cc1C: 7.11
11. CCCCCCCCCCCCNCCOc1ccc(C(CCC)(CCC)c2ccc(O)c(C)c2)cc1C: 8.31
12. CCCCCCCCCCNCCOc1ccc(C(CCC)(CCC)c2ccc(O)c(C)c2)cc1C: 8.31
